Test: Cytotoxicity assay (MTT)
Type: cell-based
Details: B16F10 mouse melanoma cells, tested at 200 µg/mL, read-out: Cytotoxicity cell viability (%)
MEASUREMENT NAME: viability at 72 h, 200 µg/mL (%)

>>> value_measured("O=c1cc(CO)occ1O [Kojic acid, reference compound]")
81.7
